# method: in vitro
# cond: human, Caco-2, Papp
measured endpoint: Papp B→A at 10 µM (×10⁻⁶ cm/s)
I only need the number, in ×10⁻⁶ cm/s, no unit after it.

// worked examples, Papp B→A at 10 µM included
compound="CN(C)C(=O)c1cc2cc(C3(Cc4ccccc4)CCNC3)ccc2[nH]1 (configuration not stated)" measured_endpoint="Papp B→A at 10 µM" unit_info="×10⁻⁶ cm/s" val=24
compound="c1ccc(CC2(c3ccc4[nH]ncc4c3)CCNC2)cc1 (configuration not stated)" measured_endpoint="Papp B→A at 10 µM" unit_info="×10⁻⁶ cm/s" val=22
compound="CCOC(=O)c1cc2cc(C3(Cc4ccccc4)CCNC3)ccc2[nH]1 (configuration not stated)" measured_endpoint="Papp B→A at 10 µM" unit_info="×10⁻⁶ cm/s" val=3.4

Ask: Which Papp B→A at 10 µM is reported for this compound? c1ccc(CC2(c3ccc4[nH]ccc4c3)CCNC2)cc1 (stereo in doubt; (+)-16)
Reply: 9.9

Ask: Repeat for the following compound: CCCCC1(c2ccc3[nH]ccc3c2)CCNC1 (configuration not stated)
Reply: 19

Ask: Repeat for the following compound: c1ccc(CC2(c3ccc4[nH]ccc4c3)CCNC2)nc1 (configuration not stated)
Reply: 18

Ask: Repeat for the following compound: NC(=O)c1cc2cc(C3(Cc4ccccc4)CCNC3)ccc2[nH]1 (configuration not stated)
Reply: 17

---

Listing: microsomal CLint of selected compounds
# method: in vitro
# cond: human, liver microsomes

compound="CCCC1(c2ccc3[nH]ccc3c2)CCNC1 (configuration not stated)" val="2.3 µL/min/mg"

Below: the item to evaluate.
Ask: Which microsomal CLint is reported for this compound? Clc1ccc([C@]23CNC[C@H]2C3)cc1Cl
Reply: 47 µL/min/mg

---

# method: in vitro
# cond: human, liver microsomes, Stability
Is microsomal CLint at least 50 µL/min/mg? Then yes (1). If not, no (0).

molecule="c1ccc(CC2(c3ccc4[nH]ccc4c3)CCNC2)cc1 (stereo in doubt; (+)-16)" class_assignment="yes (1)"

Ask: Please check the record c1ccc(CC2(c3ccc4[nH]ccc4c3)CCNC2)nc1 (stereo unspecified) and state if its microsomal CLint is at or above 50 µL/min/mg.
Reply: yes (1)

Ask: Repeat for the following molecule: c1ccc(CC2(c3ccc4sccc4c3)CCNC2)cc1 (stereo unspecified)
Reply: yes (1)

Ask: Repeat for the following molecule: CCCCC1(c2ccc3[nH]ccc3c2)CCNC1 (stereo unspecified)
Reply: no (0)

Ask: Repeat for the following molecule: CCOC(=O)c1cc2cc(C3(Cc4ccccc4)CCNC3)ccc2[nH]1 (stereo unspecified)
Reply: no (0)

Ask: Repeat for the following molecule: Fc1ccc(CC2(c3ccc4[nH]ccc4c3)CCNC2)cc1 (stereo unspecified)
Reply: yes (1)

Ask: Repeat for the following molecule: COc1cccc(CC2(c3ccc4[nH]ccc4c3)CCNC2)c1 (stereo unspecified)
Reply: yes (1)

Ask: Repeat for the following molecule: CN(C)C(=O)c1cc2cc(C3(Cc4ccccc4)CCNC3)ccc2[nH]1 (stereo unspecified)
Reply: no (0)

Ask: Repeat for the following molecule: c1ccc(CC2(c3ccc4[nH]ncc4c3)CCNC2)cc1 (stereo unspecified)
Reply: no (0)

Ask: Repeat for the following molecule: NC(=O)c1cc2cc(C3(Cc4ccccc4)CCNC3)ccc2[nH]1 (stereo unspecified)
Reply: no (0)

Ask: Repeat for the following molecule: Cn1ccc2cc(C3(Cc4ccccc4)CCNC3)ccc21 (stereo unspecified)
Reply: yes (1)
